test system: ECHORC (Watergrass (Calif.)); test: Preemergence weed control under flooded paddy conditions; assay type: in vivo, Echinochloa oryzoides; conditions: 0.0625 kg/ha, rated 3-4 weeks after treatment
PROPERTY: herbicidal effect rating, ECHORC
Lab note: write the figure by itself, no unit.

Item Cc1cccc(CN2C(=O)CSC2=Nc2cc(-n3c(=O)cc(C(F)(F)F)n(C)c3=O)c(F)cc2Cl)c1 has what recorded herbicidal effect rating, ECHORC?
2.0

Could you share which herbicidal effect rating, ECHORC value was measured for Cn1c(C(F)(F)F)cc(=O)n(-c2cc(N=C3SCC(=O)N3Cc3ccc(S(N)(=O)=O)cc3)c(Cl)cc2F)c1=O ?
7.0

GET /values?readout=herbicidal effect rating, ECHORC&item= CCOC(=O)CN1C(=O)C(SC)SC1=Nc1cc(-n2c(=O)cc(C(F)(F)F)n(C)c2=O)c(F)cc1Cl (centres unmarked)
4.0

I would be grateful if you could share the reported herbicidal effect rating, ECHORC for COc1ccc(CN2C(=O)CSC2=Nc2cc(-n3c(=O)cc(C(F)(F)F)n(C)c3=O)c(F)cc2Cl)c(OC)c1 .
7.0

Which herbicidal effect rating, ECHORC is reported for this molecule? Cn1c(C(F)(F)F)cc(=O)n(-c2cc(N=C3SCC(=O)N3Cc3ccccc3Cl)c(Cl)cc2F)c1=O
7.0

Entry COCCN1C(=O)CSC1=Nc1cc(-n2c(=O)cc(C(F)(F)F)n(C)c2=O)c(F)cc1Cl has what herbicidal effect rating, ECHORC?
4.0

What value of measured herbicidal effect rating, ECHORC is listed for CN1C(=O)C(CC(=O)NO)SC1=Nc1cc(-n2c(=O)cc(C(F)(F)F)n(C)c2=O)c(F)cc1Cl (centres unmarked) ?
7.0

Consider the molecule shown here: CCOC(=O)CN1C(=O)C(C(=O)OCC)SC1=Nc1cc(-n2c(=O)cc(C(F)(F)F)n(C)c2=O)c(F)cc1Cl (centres unmarked) What is its recorded herbicidal effect rating, ECHORC?
7.0

Provenance of the data: patent US20020137929A1
